- target.desc: human GLP-1 receptor (human) (UniProt P43220)
- Sequence (P43220 24-463): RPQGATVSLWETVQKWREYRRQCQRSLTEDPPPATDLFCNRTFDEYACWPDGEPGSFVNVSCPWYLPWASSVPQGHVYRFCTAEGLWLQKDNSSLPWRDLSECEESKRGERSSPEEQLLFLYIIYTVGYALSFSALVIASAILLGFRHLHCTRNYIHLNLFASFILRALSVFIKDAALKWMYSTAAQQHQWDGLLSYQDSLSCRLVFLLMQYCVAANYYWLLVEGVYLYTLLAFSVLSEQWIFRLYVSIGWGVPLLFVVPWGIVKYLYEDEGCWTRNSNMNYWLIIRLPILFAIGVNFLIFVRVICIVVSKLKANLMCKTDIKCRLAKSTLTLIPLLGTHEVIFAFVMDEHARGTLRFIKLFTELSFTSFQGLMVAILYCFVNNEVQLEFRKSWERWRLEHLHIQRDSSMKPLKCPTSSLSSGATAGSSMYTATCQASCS
- assay.info: cell-based or functional assay
outcome.measure: cAMP EC50 (nM)

Some binders with recorded cAMP EC50:
binder	cAMP EC50 / nM
IP226 (Fc fusion) YSEGTFTSDVSKLLERQAIDEFIAWLLKGGAAAGGSGSTASSGSGSATGGGGAATHTCPPCPAPEF	0.2
IP359 (Fc fusion) YSEGTFTSDYSKLLEEEAVRLFIEHLLAGGGGGGSGGGGSGGGGSGGGGSATHTCPPC	0.061
IP306 (Fc fusion) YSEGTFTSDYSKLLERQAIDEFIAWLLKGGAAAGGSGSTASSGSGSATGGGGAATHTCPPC	0.1

[A] IP309 (Fc fusion) YSEGTFISDVSSYLERQAIDEFIAWLLKGGAAAGGSGSTASSGSGSATGGGGAATHTCPPC
[B] IP346 (Fc fusion) YSEGTFTSDYSKLLERQAIDEFIAFLLKGGGGGGGSGGGGSGGGGSGGGGSGGGGSGGGGSA
[C] IP209 (Fc fusion) YSEGTFTSDYSSYMERQAIDEFIAWLLKGGAAAGGSGSTASSGSGSATGGGGAATHTCPPCPAPEF
[D] IP392 (Fc fusion) YSEGTFISDYSIAMDKIHQQDFVNWLLAQKGAANDWKHNITQGGGGSGGGGSGGGGSGGGGSGGGGSGGGGSACPPC
Req: Rank the items in ascending order with respect to cAMP EC50. Order the labels as requested and give them as your answer.
Resp: B, C, A, D
